Molecular target: IDH1 R132C (Homo sapiens, UniProt O75874, R132C)
Sequence (O75874 whole entry R132C): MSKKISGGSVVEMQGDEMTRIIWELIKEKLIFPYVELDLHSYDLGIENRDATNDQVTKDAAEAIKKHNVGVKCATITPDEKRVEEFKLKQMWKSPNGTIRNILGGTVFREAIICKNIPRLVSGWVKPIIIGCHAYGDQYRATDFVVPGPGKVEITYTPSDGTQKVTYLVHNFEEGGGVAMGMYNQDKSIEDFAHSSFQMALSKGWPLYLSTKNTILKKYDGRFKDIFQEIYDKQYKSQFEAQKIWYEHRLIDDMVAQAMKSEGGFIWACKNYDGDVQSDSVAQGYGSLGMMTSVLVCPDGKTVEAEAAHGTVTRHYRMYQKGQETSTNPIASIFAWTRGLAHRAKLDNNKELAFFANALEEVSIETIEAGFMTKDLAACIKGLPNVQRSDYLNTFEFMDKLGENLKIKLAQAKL
Assay: IDH1 R132C enzymatic assay (NADPH depletion coupled to diaphorase/resazurin)
Assay type: biochemical
Conditions: IDH1 R132C enzymatic inhibition, IC50 class
Experimental: Assays were conducted in a 1536-well black solid-bottom plate with a final assay volume of 9 μL. For IDH1 R132C, 3 μL of enzyme (0.00032 mg/mL IDH1 […], 10% glycerol, 50 mM potassium phosphate pH 6.5, 5 mM MgCl2, 0.03% BSA) were added to the plate, followed by the addition of 23 nL of test compound in DMSO. […]
pIC50: −log10 of the molar value.
READOUT_TYPE: pIC50

**Q:** Given the molecule `COc1ccc(OC)c(-n2c3c(cc(-c4nc5ccc(Cl)cc5s4)c2=O)C(=O)CC(C)(C)C3)c1` , what is its reported pIC50?
**A:** 5.30 to 6.00

**Q:** # get_value(readout='pIC50', item= `COc1ncccc1-n1c2c(cc(-c3nc(-c4ccc(Cl)cc4)cs3)c1=O)C(=O)CC(C)(C)C2` )
**A:** 6.00 to 6.52

**Q:** Which pIC50 value is on record for `CC(C)Oc1ccccc1-n1c2c(cc(-c3nc(-c4ccc(Cl)cc4)cs3)c1=O)C(=O)CC(C)(C)C2` ?
**A:** 6.00 to 6.52

**Q:** Any idea what its pIC50 is? The molecule is `CCc1cccc(CC)c1-n1c(CC(C)C)c(C(=O)N2CCN[C@@H](C(=O)O)C2)cc(-c2nc(-c3ccc(Cl)cc3)cs2)c1=O`
**A:** > 6.52

**Q:** For the molecule CCc1cccc(CC)c1-n1c(C=C(C)C)c(C(=O)N2CCNC(C)C2)cc(-c2nc(-c3ccc(Cl)cc3)cs2)c1=O (stereo not shown) , what pIC50 is on record?
**A:** > 6.52

**Q:** Look up pIC50: `CCc1cccc(CC)c1-n1c(CC(C)C)c(C(=O)N[C@@H](CO)c2ccccc2)cc(-c2nc(-c3ccc(Cl)cc3)cs2)c1=O`
**A:** > 6.52

**Q:** # query: pIC50 of entry CCc1cccc(CC)c1-n1c(CC(C)C)c(C(=O)N2CCNC(c3ccccc3)C2)cc(-c2nc(-c3ccc(Cl)cc3)cs2)c1=O (stereo not shown)
**A:** > 6.52

**Q:** Which value of pIC50 has been reported for `CCc1cccc(CC)c1-n1c(CC(C)C)c(C(=O)N2CCN[C@H](C(=O)O)C2)cc(-c2nc(-c3ccc(Cl)cc3)cs2)c1=O` in the records?
**A:** > 6.52

**Q:** Field request: pIC50 | item: `CCc1cccc(CC)c1-n1c(CC(C)C)c(C(=O)N2CCNCC2)cc(-c2ccn(-c3ccc(C(F)(F)F)cc3)n2)c1=O`
**A:** > 6.52

**Q:** Param item = `CCc1cccc(CC)c1-n1c(C)c(C(=O)N2CCC(C(=O)O)CC2)cc(-c2nc(-c3ccc(Cl)cc3)cs2)c1=O` ; retrieve measured pIC50.
**A:** 4.70 to 5.30

**Q:** Given the entry CCc1cccc(CC)c1-n1c(C=C(C)C)c(C(=O)N2CCNCC2C(C)C)cc(-c2nc(-c3ccc(Cl)cc3)cs2)c1=O (stereo not shown) , report its measured pIC50.
**A:** > 6.52

**Q:** Fill in the blank: the reported pIC50 of `CCc1cccc(CC)c1-n1c(CC(C)C)c(C(=O)N2CCNCC2)cc(-c2nc(-c3ccc(Cl)c(C)c3)c(C)s2)c1=O` is ____.
**A:** > 6.52

**Q:** Quick one: pIC50 for `CCc1cccc(CC)c1-n1c(C)c(C(=O)N2CC(N)C2)cc(-c2nc(-c3ccc(Cl)cc3)cs2)c1=O` ?
**A:** 5.30 to 6.00

**Q:** What pIC50 value was documented for this molecule, `CCc1cccc(CC)c1-n1c(CC(C)C)c(C(=O)N2CCNCC2)cc(-c2nc(-c3ccc(Cl)cc3Cl)c(C)s2)c1=O` ?
**A:** 6.00 to 6.52

**Q:** For `CCc1cccc(CC)c1-n1c(C=C(C)C)c(C(=O)N2CCNC3(CC3)C2)cc(-c2nc(-c3ccc(C(F)(F)F)cc3)cs2)c1=O` , what is its reported pIC50?
**A:** > 6.52

**Q:** Requested field: pIC50. Item: `CCc1cccc(CC)c1-n1c2c(cc(-c3nc(C4=CCN(C)CC4)c(C)s3)c1=O)C(=O)CC(C)(C)C2`
**A:** 4.70 to 5.30
